Would you kindly list luciferase signal for each of these molecules?
molecular target: Mitogen-activated protein kinase 7 (Homo sapiens); experiment: ERK5 transactivation activators in reporter cells, primary screen, cell-based, HTS (AID 1508626); settings: HeLa Gal4-ERK5 transactivation, 18 h, at 5 µM, hits give high values;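 note: luciferase driven by Gal4-ERK5 fusion binding five Gal4 sites before minimal TATA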
Calls of active or inactive are those of the source.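 Rule for the calls: active = luciferase signal above three times the same-plate solvent-only control wells; inactive = the rest.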

Some entries whose results are on file:
CCCCOC(=O)c1ccc(O)cc1    88 AU (inactive)
CCCC(=O)Nc1ccc(OCC(O)CNC(C)C)c(C(C)=O)c1 (stereo not given)    60 AU (inactive)
C=C(C)C1CC=C(CO)CC1 (stereo not given)    68 AU (inactive)
CC[C@H]1OC(=O)[C@H](C)[C@@H](O[C@H]2C[C@@](C)(OC)[C@@H](O)[C@H](C)O2)[C@H](C)[C@@H](O[C@@H]2O[C@H](C)C[C@H](N(C)C)[C@H]2O)[C@](C)(OC)C[C@@H](C)C(=O)[C@H](C)[C@@H](O)[C@]1(C)O    44 AU (inactive)

Please supply luciferase signal for each of the following items, keeping them in order.
1. NC1=NCCN1CC(=O)O
2. CCN1CCCC1CNC(=O)c1cc(S(N)(=O)=O)ccc1OC (stereo not given)

Output:
1. 48 AU (inactive)
2. 56 AU (inactive)

###

tested on: R275C/beta4; test: modulators of BK channel variants, profiling panel, selectivity assay, cell-based, U2OS BacMam, thallium flux, beta subunits (AID 1259406); details: at 30 µM;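 note: initial slope of Thallos dye fluorescence rise after thallium is added; log ratio against the mean of 0.3% DMSO vehicle wells on the same plate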
Would you kindly list log fold change Tl+ flux for each of these compounds?
Give bare numbers.

Some entries whose results are on file:
CC(C(=O)O)c1ccc(-c2ccccc2)c(F)c1 (stereo unspecified)    0.0279
Cc1cccc(C)c1NC(=O)C1CCCCN1C (stereo unspecified)    -0.0225

Please supply log fold change Tl+ flux for each of the following items, keeping them in order.
1. CS(=O)(=O)c1ccc(C2=C(c3ccccc3)C(=O)OC2)cc1
2. CN/C(=C\[N+](=O)[O-])NCCSCc1ccc(CN(C)C)o1

Output:
[0.00682, -0.0213]

Please supply log fold change Tl+ flux for each of the following items, keeping them in order.
1. CC(=O)O[C@]1(C(C)=O)CC[C@H]2[C@@H]3C[C@H](C)C4=CC(=O)CC[C@]4(C)[C@H]3CC[C@@]21C
2. Clc1ccccc1CN1CCc2sccc2C1
3. C[N+]1(C)CCCC(OC(=O)C(O)(c2ccccc2)c2ccccc2)C1 (stereo unspecified)
4. COc1ccc(-c2cc(=O)c3c(OC)c(OC)c(OC)c(OC)c3o2)cc1OC

Output:
0.0252
-0.0465
0.0435
-0.242

Please supply log fold change Tl+ flux for each of the following items, keeping them in order.
1. COC(=O)C1=C(C)NC(C)=C(C(=O)OCCN(C)Cc2ccccc2)C1c1cccc([N+](=O)[O-])c1 (stereo unspecified)
2. CCCC(=O)Nc1ccc(OCC(O)CNC(C)C)c(C(C)=O)c1 (stereo unspecified)
3. CC(C)NCC(O)COc1cccc2ccccc12 (stereo unspecified)

Output:
1: 0.196; 2: 0.0245; 3: 0.00549

###

assay: inhibition of 3D7 malaria parasite growth – strain 3D7 (AID 2306);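 note: 0% = DMSO wells and 100% = chloroquine plus artemisinin control wells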; conditions: P. falciparum 3D7 erythrocytic growth, LDH absorbance, 72 h; at 2 µM; hits give high values
measure: growth inhibition (%)
One number for each entry, in %.

Please supply growth inhibition for each of the following items, keeping them in order.
1. CCCC(C)NC(=O)C(N)Cc1cccc(I)c1 (centres undefined)
2. c1ccc(CN2CCC(NCc3ccc(-c4ccc(CNC5CCCC5)cc4)cc3)CC2)cc1

Output:
[95, 101]

The measured values listed here are drawn from PubChem BioAssay.
